Test system: UACC-257 melanoma
testDetails: NCI-60 one-dose screen, 48 h (100 = growth as untreated, 0 = no growth, -100 = all killed)
protocolConditions: 10 µM
This is part of a sample that, as a whole, favours compounds with a hit. Of some 83,000 tested, about 20% had one in any assay.
measuredQuantity: growth (%)
Write the answer as a number in %, unit excluded.

COCCOC(=O)NC(=O)Nc1ccc(/C(=N/O)c2ccc(Cl)cc2)cc1 | 71.6
CCCCCCCOc1cccc(/C=C2/C(=O)N=C3SCCCN32)c1 | 68.4
CCc1ccc(-c2nnc(COc3ccc(-c4nc5cc(Cl)c(Cl)cc5[nH]4)cc3OC)o2)cc1 | 91.4
Cc1ccc(S(=O)(=O)Oc2ccccc2-c2ccccc2)cc1 | 54.4
Cc1nn2c(/C=C3/C(=O)Nc4ccc(Cl)cc43)c(-c3ccccc3)nc2s1 | 62.3

Identify measured growth corresponding to Cc1ccc(NS(=O)(=O)c2ccccc2)c(NS(=O)(=O)c2ccccc2)c1
107

Tell us which growth value is on record for CCCCCCCCCCN=C(c1ccc(N(C)C)cc1)c1ccc(N(C)C)cc1
28.3

Give the reported value of growth for this record: COc1ccc(NC(=O)CCn2cnc3c(cc(-c4ccccc4)n3-c3ccccc3)c2=O)cc1
13

Give the reported value of growth for this record: Cc1cc2cc3c(=O)[nH]c(=O)cc-3n(CC(O)C(O)C(O)CO)c2cc1C (stereo not drawn)
110

Indicate the recorded growth value for this compound: CCN(CCCNC(=O)Cc1cc(=O)oc2cc(N(C)C)ccc12)CCNc1ccnc2cc(Cl)ccc12
41.9

Using the record for CCCN(CCC)CCCNC(=O)c1cc2c(-c3ccc(OC)c(OC)c3)nn(C)c2s1 , state its measured growth.
7.46

###

Tested on: NCI-H226 lung
testDetails: NCI-60 one-dose screen, 48 h (100 = growth as untreated, 0 = no growth, -100 = all killed)
protocolConditions: 10 µM
About 83,000 compounds went through this panel and 20% of them were active in at least one assay; those are over-represented in the sample as a whole. Active and inactive are the calls of the source. Rule for the calls: active = growth percent below 10; inactive = the rest.
measuredQuantity: growth

O=c1oc2cc(OS(=O)(=O)C3CC3)ccc2c2c1CCCCCC2 | 67.2% (inactive)
CCOC(=O)Nc1ccc2c(c1)C(=O)N(CC)c1ccccc1O2 | 14.5% (inactive)
O=C(c1ccc(Cl)cc1)c1no[n+]([O-])c1C(=O)c1ccc(Cl)cc1 | 102% (inactive)

# return recorded growth for input CNC(=O)c1cc(Oc2ccc(NC(=O)Nc3ccc(Cl)c(OC4CCCCC4)c3)c(F)c2)ccn1
48.4% (inactive)

Supply measured growth of COc1ccc(/C=C2\SC(=S)N(CCCN3CCOCC3)C2=O)c(OC)c1 in your reply.
-99.3% (active)

Please list growth recorded for the compound O=C1CC(c2cccc(-c3cccnc3)c2)=Nc2ccc(Br)cc2N1
27.8% (inactive)

# return recorded growth for entry NC(=O)C1CCCN(Cc2c[nH]c3ccccc23)C1 (centres undefined)
84.5% (inactive)

Read off the recorded growth for CC(C)(C)CC(C)(C)c1ccc(O)c(Cc2ccc(Cl)cc2Cl)c1
-83.8% (active)

Retrieve growth measured for COc1ccc(COC(=O)CC(C)C)cc1 and print it.
95.1% (inactive)

Quick one: give measured growth for COc1ccc(-c2nnc(COc3ccc(NC(=O)Nc4cccc(C(F)(F)F)c4)cc3F)o2)cc1
87.9% (inactive)

Output measured growth for this item: CCOC(=O)Cn1nnc(-c2ccc(OCc3ccccc3F)cc2)n1
103% (inactive)

Report growth, nothing else, for this compound: Cc1ccc(S(=O)(=O)Oc2ccccc2-c2ccccc2)cc1
53.5% (inactive)

For Cc1ccc(C(=O)O)c(N)c1C , write its growth.
98.6% (inactive)

Annotate the compound COc1cccc(C(=O)N(c2ccc(F)c(F)c2)C(C(=O)NC(C)(C)C)c2cc3c(C)cc(C)cc3nc2Cl)c1 (centres undefined) with its measured growth.
65.7% (inactive)

Report growth, nothing else, for this compound: C(=C\c1nc2ccccc2s1)/c1ccc(N2CCOCC2)s1
89.4% (inactive)

Look up and report measured growth for this entry: C#CCNCCCN1C(=O)c2ccc3c4c(ccc(c24)C1=O)C(=O)N(CCCNCC#C)C3=O
-48.6% (active)

Dear colleague, please send me the reported growth for O=C1/C(=C/c2ccc(O)cc2)Oc2ccc(Cl)cc21 when you can.
68.8% (inactive)

Provide one value: measured growth of O=c1ccc2nc(-c3ccccc3)nn(-c3ccccc3)c-2c1
68.1% (inactive)

Supply growth value. Item: Cc1ccc(C)c(S(=O)(=O)NC2c3ccccc3Oc3ccccc32)c1
90.3% (inactive)

###

Test system: HOP-62 NSCLC
testDetails: NCI-60 one-dose screen, 48 h (100 = growth as untreated, 0 = no growth, -100 = all killed)
protocolConditions: 10 µM
This is part of a sample that, as a whole, favours compounds with a hit. Of some 83,000 tested, about 20% had one in any assay. Calls of active or inactive are those of the source. How the source made its calls: active means growth percent below 10; inactive means the rest.
measuredQuantity: growth

Record excerpt, results attached:
N#Cc1c2c([nH]c(=O)c1C(N)=O)CCCCC2 | 92.4% (inactive)
O=C(O)CN1C(=O)C=CC1=O | 107% (inactive)
COc1ccc(-c2csc(-c3cc(Cl)cc(Cl)c3Cl)n2)cc1 | 91.1% (inactive)
CCOC(=O)/C(C#N)=C(/C)C1CC1 | 98.5% (inactive)
Cc1cc(/C=C2\SC(=Nc3ccccc3)N(C3CCCC3)C2=O)c(C)n1-c1ccc(Cl)cc1 | -69.6% (active)

Please report the measured growth for CCC(CCNc1cc(OC)cc2cccnc12)CN1C(=O)c2ccccc2C1=O (stereo unspecified)
102% (inactive)

Provide measured growth value, entry: C[C@@H]1N=C(c2ccc(Br)cc2)Nc2nc3ccccn3c2C1=O
55.8% (inactive)

// Input: N/C(=N\O)c1cn(C2OC(CO)C(O)C2O)c2ncnc(N)c12 (stereo unspecified) . Output its growth only.
-18.8% (active)

Please give measured growth of the following entry: O=C(Nc1cccc(C(F)(F)F)c1)C(Cl)Cl
96.5% (inactive)

Specify measured growth for Fc1ccc2[nH]c3c(NCCCN4CCOCC4)ncnc3c2c1 .
32.7% (inactive)

###

The entries below come with measured growth values attached.
System: DU-145 prostate
testDetails: NCI-60 one-dose screen, 48 h (100 = growth as untreated, 0 = no growth, -100 = all killed)
protocolConditions: 10 µM
This is part of a sample that, as a whole, favours compounds with a hit. Of some 83,000 tested, about 20% had one in any assay.
# value in %; strip the unit string

Sample answers from the record:
COc1ccc(C2=Cc3ccc(OC(C)=O)cc3OC2)cc1 | 90.2
Cn1c([N+](=O)[O-])cnc1C=C1C(=O)c2ccccc2C1=O | 46.5
Cc1cc(O)c(C2=NN(c3ccc(S(N)(=O)=O)cc3)C(c3ccc(N(C)C)cc3)C2)c(C)c1Cl (stereo unspecified) | 75.2
O=C1/C(=C/c2cccs2)CCC/C1=C\c1cccs1 | 92.9
CCN(Cc1ccccc1)C1CCN(Cc2cc(Br)ccc2O)CC1 | 67.4

Please turn your attention to the following entry.
Kindly indicate its recorded growth. Item: O=C(C=P(c1ccccc1)(c1ccccc1)c1ccccc1)c1ccc(Br)cc1
90.5

###

Tested on: MALME-3M melanoma
testDetails: NCI-60 one-dose screen, 48 h (100 = growth as untreated, 0 = no growth, -100 = all killed)
protocolConditions: 10 µM
Description: Cells are grown in 96 well plates and exposed to the test compound for 48 hours. Compounds are tested at a single concentration, which is 10^-5 M for most compounds. The reported endpoint is percent growth (GI% or GIPRCNT), where numbers from 0 - 100% represent growth inhibition, and numbers from -100% - 0 represent cell death. For example, a value of 40 represents 60% growth inhibition. A value of 0 means no net growth occurred over the course of the experiment. […]
About 83,000 compounds went through this panel and 20% of them were active in at least one assay; those are over-represented in the sample as a whole.
Decide using growth alone. Strictly below 70%: yes. Equal to or above 70%: no.

N#CN1CC[C@H](C(=O)Nc2ncc(-c3ccncc3)s2)C1 | yes
COc1ccc(-c2nnc(COc3ccc(NC(=O)Nc4ccccc4)cc3F)o2)cc1 | no
COc1ccc(/C=C2\SC(=S)N(CCCN3CCOCC3)C2=O)c(OC)c1 | no
COc1ccc(-c2cn[nH]c2-c2cc(OC)c(OC)c(OC)c2)cc1 | no
O=C(NCCCl)c1cc(Cl)cc(Cl)c1 | no

# check: growth < 70% for COc1cc(-c2nc3ccccc3[nH]2)ccc1OCC(=O)N=Nc1c(O)[nH]c2ccccc12
yes

Strictly below 70% in growth? COc1ccc(-c2[nH]ncc2-c2cc(OC)c(OC)c(OC)c2)cc1
yes

Confirm or reject: growth of Cc1cc(OI)c(C(C)C)cc1-c1cc(C(C)C)c(OI)cc1C lies strictly below 70%
no

I wonder whether CCCC(C)c1ccc(OCCCCCCN2CCNCC2)cc1 (stereo unspecified) has growth below 70%. Can you tell?
yes

Given the entry COc1cccc2c1O/C(=C\c1ccc([N+](=O)[O-])s1)C2=O , would its reported growth be below 70%?
no

Is the reported growth for O=C(Nc1cccc(-c2nc3ccccc3[nH]2)c1)c1cccc(NC(=O)c2ccco2)c1 strictly below 70%?
no

Hello, I'm reviewing records and need to know if growth of Cc1cc(C)c(/C=C2\C(=O)Nc3ccc(NC(=O)CCCCCCC(=O)NO)cc32)[nH]1 is below 70%. Could you check?
yes

I'd appreciate it if you could check whether C=CCN1C(=O)/C(=C\c2ccc3c(c2)CCC3)SC1=S has growth smaller than 70%.
no

Quick check: does CCc1c(C(=O)NCc2c(O)ccc3cccc(O)c23)[nH]c(C)c1C(C)=O have growth under 70%?
yes
